Measured abundance fitness, listed per entry for reference.
B1: Far upstream element-binding protein 1, residues 184 to 257; numbered along this chain, Q96AE4 (parent)
chain: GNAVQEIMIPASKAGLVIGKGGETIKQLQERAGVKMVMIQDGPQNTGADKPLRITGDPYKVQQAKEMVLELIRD

Variants of: B1
Assay: abundance fitness (aPCA) (normalised: wild type 0, dead -1); higher = more abundant; growth selection in yeast, the domain comes from the species named
Conditions: Homo sapiens

Residue codes | abundance fitness
GNAVQEIMIPASKAGLVIGKGGETIKQLQERAGVKMVMIPDGPQNTGADKPLRITGDPYKVQQAKEMVLELIRD [Q40P] | -0.052
GNAVQEIMIPASKAGLVIGKGGETIKQLQERAGVKMVMIQDGPQNTGADKPLRITGDPYIVQQAKEMVLELIRD [K60I] | -0.653
GNAVQEIMIPASKAGLVIGKGGETIKQLQERAGVKMVMIQDGPQNTGADKPLRITGDPYKVQQAKEEVLELIRD [M67E] | -0.082
GNAVQEIMIPASKAGLVIGKGGETIKQLQERAQVKMVMIQDGPQNTGADKPLRITGDPYKVQQAKEMVLELIRD [G33Q] | -0.057
GNAVQEIMIPASKAGLVIGKGGETIKQLQEREGVKMVMIQDGPQNTGADKPLRITGDPYKVQQAKEMVLELIRD [A32E] | -0.201
GNAVQEIMIPASKAGLVIGKGGETIKQLQERAGVPMVMIQDGPQNTGADKPLRITGDPYKVQQAKEMVLELIRD [K35P] | -0.472
GNAVQEIMIPASKAGLVIGKGGETIKQLQRRAGVKMVMIQDGPQNTGADKPLRITGDPYKVQQAKEMVLELIRD [E30R] | 0.01
GNAVQEIMIPASKAGLVIGKGGETIKQLQERAGVKMVMIQDGPQNTGADKPLRITGDPYKVQDAKEMVLELIRD [Q63D] | -0.116
GNAVQEIMIPASKAILVIGKGGETIKQLQERAGVKMVMIQDGPQNTGADKPLRITGDPYKVQQAKEMVLELIRD [G15I] | -0.028
GNAVQEIMIPASKAGLVIGKGGETIKQLQERAGVKMVMIQDGPQNTGADKPLRIQGDPYKVQQAKEMVLELIRD [T55Q] | -0.022
GNAVQEIMIPASKAGLVIGKGGETIKQLQERAGVKMVMIQDGPQNTGADKPLRITGDPYKVQQAKEMVLELIRC [D74C] | -0.128
GNAVQEIMIPASKAGLVIGKGGETIKQEQERAGVKMVMIQDGPQNTGADKPLRITGDPYKVQQAKEMVLELIRD [L28E] | -0.63
GNAVQEIMIPASKAGLVIGKGGETIKQLQEIAGVKMVMIQDGPQNTGADKPLRITGDPYKVQQAKEMVLELIRD [R31I] | -0.12
